Cited source for all entries: the supplement of paper PMC5908809

Catalogue of compounds with associated percent inhibition of viability
# System: IMC-1 (IL-2 20 ng/mL);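 further: normalised to DMSO-only wells as negative and benzethonium chloride as positive control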
# ASSAY DETAILS: percent inhibition of viability; higher = more inhibition
# RECORDED CONDITIONS: 72 h; 1000 nM

Guide cases for percent inhibition of viability, answers given:
{"columns": ["COMPOUND", "TESTED SYSTEM", "percent inhibition of viability"],
 "data": [
  ["Nc1nccc(-c2c(-c3ccc(F)cc3)ncn2C2CCCCC2)n1 (max concentration tested 10000 nM)", "IMC-1 (IL-2 20 ng/mL)", "3.69%"],
  ["C[C@@H](Oc1cc(-n2cnc3ccc(CN4CCN(C)CC4)cc32)sc1C(N)=O)c1ccccc1C(F)(F)F (max concentration tested 10000 nM)", "IMC-1 (IL-2 20 ng/mL)", "98%"],
  ["CC(C)C[C@H](NC(=O)[C@H](Cc1ccccc1)NC(=O)c1cnccn1)B(O)O [Bortezomib] (max concentration tested 1000 nM)", "IMC-1 (IL-2 20 ng/mL)", "101%"]
]}

Prompt: Hello, please tell me recorded percent inhibition of viability for this one: CCn1cc(-c2ccnc3[nH]c(-c4cccc(CN(C)C)c4)cc23)c(-c2ccc(NC(=O)N(C)C)cc2)n1 (max concentration tested 1000 nM)
Response: 69%

Prompt: State its percent inhibition of viability for this compound: CC1(C)CNc2cc(NC(=O)c3cccnc3NCc3ccncc3)ccc21 [Motesanib] (max concentration tested 10000 nM)
Response: 5%

Prompt: Give the measured percent inhibition of viability for O=C(O)CCCCC(CCSCc1ccccc1)SCc1ccccc1 (centres undefined) [CPI-613] (max concentration tested 10000 nM)
Response: -2.84%

Prompt: Look up and report measured percent inhibition of viability for this entry: Clc1ccc(C(c2ccccc2Cl)C(Cl)Cl)cc1 (centres undefined) [Mitotane] (max concentration tested 10000 nM)
Response: -5.63%

Prompt: Provide one value: measured percent inhibition of viability of Cc1ccc(F)c(NC(=O)Nc2ccc(-c3cccc4[nH]nc(N)c34)cc2)c1 [Linifanib] (max concentration tested 1000 nM)
Response: 1.06%

Prompt: Give the reported percent inhibition of viability for this compound. Oc1ncnc2[nH]ncc12 [Allopurinol] (max concentration tested 10000 nM)
Response: 1.15%

---

# Test system: normal NK cells expanded with K562-aAPC
# ASSAY DETAILS: percent inhibition of viability; higher = more inhibition
# RECORDED CONDITIONS: 72 h; IL-2 2.5 ng/mL; 100 nM
MEASURED PARAMETER: percent inhibition of viability (%)
Give your result in % as a bare value.

Example compounds with recorded percent inhibition of viability:
{"columns": ["COMPOUND", "VALUE UNIT", "percent inhibition of viability"],
 "data": [
  ["COc1cc(C(=O)O)ccc1NC(=O)[C@@H]1N[C@@H](CC(C)(C)C)[C@](C#N)(c2ccc(Cl)cc2F)[C@H]1c1cccc(Cl)c1F [Idasanutlin] (max concentration tested 10000 nM)", "%", 39.6],
  ["COc1cccc2c1C(=O)c1c(O)c3c(c(O)c1C2=O)C[C@@](O)(C(=O)CO)C[C@@H]3O[C@H]1C[C@H](N)[C@H](O)[C@H](C)O1 [Doxorubicin] (max concentration tested 1000 nM)", "%", 39.8]
]}

Continue with the next compound.
Prompt: Report measured percent inhibition of viability; entry is N#Cc1ccc(C(c2ccc(C#N)cc2)n2cncn2)cc1 [Letrozole] (max concentration tested 10000 nM)
Response: -4.76
